assay: Stability of the analytes in rat plasma QC samples; format: in vitro ADME; conditions: 3 free thaw cycles, medium QC spiked concentration
observable: Free-thaw stability: Measured concentration (ng/mL)
The answer is to be given in ng/mL; state only the numeric part.

**Query** Consider the molecule shown here: O=c1cc(-c2ccc(O)cc2)oc2cc(O)cc(O)c12 [Apigenin, apigenin] What is its recorded Free-thaw stability: Measured concentration?
**Result** 124.68

**Query** Try O=c1cc(-c2ccc(O)c(O)c2)oc2cc(O)cc(O)c12 [Luteolin, luteolin] next.
**Result** 66.03

**Query** Try O=c1c(O)c(-c2ccc(O)c(O)c2)oc2cc(O)cc(O)c12 [Quercetin, quercetin] next.
**Result** 17.48

Continuing:
**Query** Consider the molecule shown here: C[C@@H]1O[C@@H](OC[C@H]2O[C@@H](Oc3c(-c4ccc(O)c(O)c4)oc4cc(O)cc(O)c4c3=O)[C@H](O)[C@@H](O)[C@@H]2O)[C@H](O)[C@H](O)[C@H]1O [Rutin] What is its recorded Free-thaw stability: Measured concentration?
**Result** 110.30

**Query** Try C[C@@H]1O[C@@H](O[C@@H]2[C@@H](O)[C@H](OCCc3ccc(O)c(O)c3)O[C@H](CO)[C@H]2OC(=O)/C=C/c2ccc(O)c(O)c2)[C@H](O)[C@H](O)[C@H]1O [Acteoside, acteoside] next.
**Result** 544.87

**Query** Try COc1ccc(-c2cc(=O)c3c(O)cc(O)cc3o2)cc1 [Acacetin, acacetin] next.
**Result** 26.99
